molecular target: Hexose transporter 1 (Plasmodium falciparum); assay: ST_JUDE_LEISH: Cytotoxicity at 2uM final concentration against transgenic Leishmania Mexicana promastigotes LmPfHT that are glucose transport deficient and complemented with the Plasmodium falciparum hexose transporter. Activity is measured by DNA content using SYBR green in vitro; format: functional
In this section we review reported inhibition values for a set of compounds.
The response must be a number in % with no trailing unit.

Check out these entries, answers already filled in.
compound="CCCCCc1cc(O)c2c(c1)OC(C)(C)CC2C1=CCN(Cc2ccccc2)CC1 (centres undefined)" subject_of_test="Hexose transporter 1 (Plasmodium falciparum)" measurement_unit=% reported_value=2.23
compound=CNCCCN(C)C(=O)Oc1c(Br)c(C)nc(C)c1-c1ccc(Oc2ccc(OC(F)(F)F)cc2)cc1 subject_of_test="Hexose transporter 1 (Plasmodium falciparum)" measurement_unit=% reported_value=-3.25
compound="Cc1cc(C)c(CC(C)NCC(O)c2cccc(C(F)(F)F)c2)c(C)c1 (centres undefined)" subject_of_test="Hexose transporter 1 (Plasmodium falciparum)" measurement_unit=% reported_value=-0.06

COc1ccc(NC(=S)NC(NC(=O)CF)C(Cl)(Cl)Cl)cc1[N+](=O)[O-] (centres undefined) has a reported inhibition of -3.38

C#CCOc1ccc(CC(C)NCC(O)c2cccc(C(F)(F)F)c2)cc1 (centres undefined) has a reported inhibition of 0.36

Cc1cc(N(C)C2CCN(C)CC2)nc(Nc2ccc(Br)cc2)n1 has a reported inhibition of 6.94

CN1CCC(COC(=O)C(O)(c2ccccc2)c2ccccc2)C1 (centres undefined) has a reported inhibition of -0.69

CN(Cc1ccccc1)C1CCN(CCc2c[nH]c3ccc(F)cc23)CC1 has a reported inhibition of 5.56

###

molecular target: Hexose transporter 1 (Plasmodium falciparum) (UniProt O97467); assay: ST_JUDE_LEISH: Cytotoxicity at 2uM final concentration against transgenic Leishmania Mexicana promastigotes LmPfHT that are glucose transport deficient and complemented with the Plasmodium falciparum hexose transporter. Activity is measured by DNA content using SYBR green in vitro; type: functional
Quantity Measured: inhibition (%)
The response must be a number in % with no trailing unit.

Check out these entries, answers already filled in.
molecule=CN1CC=C(c2c[nH]c3ccc(Br)cc23)CC1 reported_value=0.19
molecule="CCCCCCCSc1ccc(CC(C)NCC(O)c2cccc(Cl)c2)cc1 (stereo not given)" reported_value=4.49
molecule=CN(C)c1cccc(NC(=O)N[C@H]2N=C(c3ccccc3)c3ccccc3N(CC(=O)N3CCCC3)C2=O)c1 reported_value=2.62

O=C(/C=C/c1c(Cl)cccc1Cl)NC1CCC(CN2C3CCC2CC(c2c[nH]c4ccccc24)C3)CC1 (stereo not given) has a reported inhibition of 1.89

CCCCCc1cc(O)c2c(c1)OC(C)(C)CC2C1=CCN(Cc2cnc3ccccc3c2)CC1 (stereo not given) has a reported inhibition of 1.25

###

target: Solute carrier family 2, facilitated glucose transporter member 1 (Homo sapiens) (UniProt P11166); experiment: ST_JUDE_LEISH: Cytotoxicity at 2uM final concentration against transgenic Leishmania Mexicana promastigotes LmGLUT1 that are glucose transport deficient and complemented with the human glucose transporter GLUT1. Activity is measured by DNA content using SYBR green in vitro; assay type: functional
Sequence (P11166 whole entry): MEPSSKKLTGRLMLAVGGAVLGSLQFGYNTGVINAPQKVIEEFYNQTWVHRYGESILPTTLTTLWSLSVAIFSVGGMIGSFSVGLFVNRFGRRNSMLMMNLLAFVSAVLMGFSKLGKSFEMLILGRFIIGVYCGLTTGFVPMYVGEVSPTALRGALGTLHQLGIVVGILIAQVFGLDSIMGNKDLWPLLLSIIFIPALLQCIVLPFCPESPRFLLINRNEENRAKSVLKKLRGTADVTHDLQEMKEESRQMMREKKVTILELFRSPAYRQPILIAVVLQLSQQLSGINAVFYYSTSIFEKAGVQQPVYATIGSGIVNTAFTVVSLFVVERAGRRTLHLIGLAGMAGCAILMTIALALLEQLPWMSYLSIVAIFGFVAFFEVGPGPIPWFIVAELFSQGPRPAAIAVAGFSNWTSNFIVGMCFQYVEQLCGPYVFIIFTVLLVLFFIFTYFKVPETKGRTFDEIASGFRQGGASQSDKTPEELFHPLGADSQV
Quantity Measured: inhibition (%)
The response must be a number in % with no trailing unit.

compound=CC[C@H]1CN2CC[C@H]1C[C@H]2[C@H](OC(=O)c1ccccc1)c1cc(C#N)nc2ccc(OC)cc12 reported_value=1.81
compound=CC[C@H]1CN2CC[C@H]1C[C@@H]2[C@H](O)c1ccnc2ccc(O)cc12 reported_value=-0.84
compound=CC[C@H]1CN2CC[C@@H]1C[C@H]2[C@H](O)c1ccnc2ccc(Cl)cc12 reported_value=2.97
compound="COc1cccc(CC(C)NCC(O)c2cccc(Cl)c2)c1 (centres undefined)" reported_value=0.74
compound="CC(C)c1ccc(C=CC(=O)NC2CCC(CN3CCC(c4c[nH]c5ccccc45)CC3)CC2)cc1 (centres undefined)" reported_value=2.2

CN(C)c1cccc(NC(=O)N[C@H]2N=C(c3ccccc3)c3ccccc3N(CC(=O)N3CCCC3)C2=O)c1 has a reported inhibition of 2.85

COc1ccc(CC(C)NCC(O)c2cccc(Cl)c2)cc1C (centres undefined) has a reported inhibition of 7.48

O=C(/C=C/c1ccc(Cl)c(Cl)c1)NC1CCC(CN2CCC(c3c[nH]c4cc(O)ccc34)CC2)CC1 (centres undefined) has a reported inhibition of 3.03

CC[C@H]1CN2CC[C@@H]1C[C@H]2[C@H](O)c1cc(N2CCC(c3ccccc3)CC2)nc2ccc(OC)cc12 has a reported inhibition of 8.84

###

molecular target: Glucose transporter (Leishmania mexicana) (UniProt O61059); assay: ST_JUDE_LEISH: Cytotoxicity at 2uM final concentration against transgenic Leishmania Mexicana promastigotes LmGT2 that are glucose transport deficient and complemented with the L. Mexicana glucose transporter 2. Activity is measured by DNA content using SYBR green in vitro; type: functional
Quantity Measured: inhibition (%)
The response must be a number in % with no trailing unit.

molecule="CC(Cc1ccc(S(=O)(=O)N(C(C)C)C(C)C)cc1)NCC(O)c1cccc(C(F)(F)F)c1 (configuration not stated)" reported_value=1.68
molecule=CC[C@H]1CN2CC[C@@H]1C[C@H]2[C@H](O)c1cc(N2CCC(N3CCCCC3)CC2)nc2ccc(OC)cc12 reported_value=-0.04
molecule="CCN1CCC2(c3cccc(OC)c3)Cc3nc4ccccc4c(-c4ccccc4)c3CC2C1 (configuration not stated)" reported_value=2.12

COc1ccc(CC(C)NCC(O)c2cccc(Cl)c2F)cc1 (configuration not stated) has a reported inhibition of 0.32

COc1ccc(C(=O)C2CC2CN2CC=C(c3c[nH]c4ccc(OC)nc34)CC2)cc1 (configuration not stated) has a reported inhibition of 2.37

CCN(Cc1ccccc1)CC(O)c1ccc(Cl)c(Cl)c1 (configuration not stated) has a reported inhibition of 1.21

CN(c1cc(NC(=O)c2cccs2)ccn1)C1CCN(Cc2ccccc2)CC1 has a reported inhibition of 2.09

O=C(/C=C/c1ccc(Cl)c(Cl)c1)N(Cc1ccccc1)C1CCC(CN2CCC(c3c[nH]c4ccccc34)CC2)CC1 (configuration not stated) has a reported inhibition of 4.05

COc1cc(C=CC(=O)NC2CCC(CN3CCC(c4c[nH]c5ccccc45)CC3)CC2)cc(OC)c1 (configuration not stated) has a reported inhibition of -3.65

CN1CC=C(C=Cc2c[nH]c3ccccc23)CC1 has a reported inhibition of 3.25

CC(=O)N(Cc1cccc(-c2cccc(CNCc3ccc4c(c3)OCO4)c2)c1)C1CCN(Cc2ccccc2)CC1 has a reported inhibition of 7.83

COC(=O)/C=C/c1ccc(CC(C)NCC(O)c2cccc(Cl)c2)cc1 (configuration not stated) has a reported inhibition of -0.96

CC(Cc1ccc(-c2nc3ccccc3[nH]2)cc1)NCC(O)c1cccc(C(F)(F)F)c1 (configuration not stated) has a reported inhibition of -0.37

CO/C(=C\C=C\c1cc2cc(Cl)c(Cl)cc2[nH]1)C(=O)N[C@H]1CN2CCC1CC2 has a reported inhibition of -0.34

O=C(NC1CCC(CN2CCC(c3c[nH]c4ccccc34)CC2)CC1)C1(O)c2ccccc2-c2ccccc21 (configuration not stated) has a reported inhibition of 2.03

c1ccc(C(OCCC2CCN(Cc3cccc4cccnc34)CC2)c2ccccc2)cc1 has a reported inhibition of 5.64

CC(=O)C1(c2ccccc2)CCN(CCC(NC(=O)c2cc(C(F)(F)F)cc(C(F)(F)F)c2)c2ccc(Cl)c(Cl)c2)CC1 (configuration not stated) has a reported inhibition of 5.98

O=C(NC1CCC(CN2CCC(c3c[nH]c4ccccc34)CC2)CC1)NC12CC3CC(CC(C3)C1)C2 (configuration not stated) has a reported inhibition of 1.41

Cc1nc(N)nc(N)c1-c1cccc(Cl)c1 has a reported inhibition of 1.38

C/C=C1/CN2CC[C@H]1C[C@H]2[C@H](O)c1ccnc2ccc(OC)cc12 has a reported inhibition of 2.08

CS(=O)(=O)Nc1ccc2c(C3CCN(CC4CCN(C(=O)/C=C/c5ccc(Cl)c(Cl)c5)CC4)CC3)c[nH]c2c1 has a reported inhibition of -2.09

O=C(CC1CCCC1)N(CC1CCN(Cc2ccc(C(F)(F)F)cc2)CC1)c1ccc(N2CCOCC2)c(F)c1 has a reported inhibition of 14

###

target: Solute carrier family 2, facilitated glucose transporter member 1 (Homo sapiens) (UniProt P11166); assay: ST_JUDE_LEISH: Cytotoxicity at 2uM final concentration against transgenic Leishmania Mexicana promastigotes LmGLUT1 that are glucose transport deficient and complemented with the human glucose transporter GLUT1. Activity is measured by DNA content using SYBR green in vitro; format: functional
In this section we review reported inhibition values for a set of compounds.
The response must be a number in % with no trailing unit.

compound="CC1(C)CCCN(C(=O)Cc2ccc3c(c2)CCCC3)C1CN1CC=CC1 (centres undefined)" quantity_measured=inhibition reported_value=8.1
compound="Cc1cc(C2CCCCN2C)ccc1-c1ccc(C(=O)N2CCc3cc4c(cc32)C2(CCN(C)CC2)CO4)cc1 (centres undefined)" quantity_measured=inhibition reported_value=3.41
compound=O=c1n[n+](C2CCCCC2)[n-]o1 quantity_measured=inhibition reported_value=-0.73
compound=COc1coc(C(=O)NC2CCN(CC3(c4ccc(Cl)cc4)CCC3)CC2)c1OC quantity_measured=inhibition reported_value=4.7
compound=O=C(/C=C/c1cc(F)cc(C(F)(F)F)c1)N1CCC(CN2CCC(c3c[nH]c4ccccc34)CC2)CC1 quantity_measured=inhibition reported_value=0.47

Cc1c(C(=O)NC2CCC(CN3CCC(c4c[nH]c5ccccc45)CC3)CC2)cnn1-c1c(Cl)cc(Cl)cc1Cl (centres undefined) has a reported inhibition of 1.64

Cc1c(C)c2c(c(C)c1O)CC[C@](C)(C(=O)N1CCC(CN3CCC(c4c[nH]c5ccccc45)CC3)CC1)O2 has a reported inhibition of 3.34

CC(=O)C1(c2ccccc2)CCN(CCC2(c3ccc(Cl)c(Cl)c3)CN(C(=O)CC(C)C)CCO2)CC1 (centres undefined) has a reported inhibition of -0.51

O=C(NCCC1CCN(CCc2c[nH]c3ccccc23)CC1)Nc1ccc(Cl)c(Cl)c1 has a reported inhibition of 3.67
